- measured_target: TYK2 (Homo sapiens, UniProt P29597)
- Construct: Degradation of TYK2 in cells was quantitatively measured using Meso Scale Discovery (MSD) technology; endogenous in cells; host or cells: OCI-LY10
- Sequence (P29597 whole entry): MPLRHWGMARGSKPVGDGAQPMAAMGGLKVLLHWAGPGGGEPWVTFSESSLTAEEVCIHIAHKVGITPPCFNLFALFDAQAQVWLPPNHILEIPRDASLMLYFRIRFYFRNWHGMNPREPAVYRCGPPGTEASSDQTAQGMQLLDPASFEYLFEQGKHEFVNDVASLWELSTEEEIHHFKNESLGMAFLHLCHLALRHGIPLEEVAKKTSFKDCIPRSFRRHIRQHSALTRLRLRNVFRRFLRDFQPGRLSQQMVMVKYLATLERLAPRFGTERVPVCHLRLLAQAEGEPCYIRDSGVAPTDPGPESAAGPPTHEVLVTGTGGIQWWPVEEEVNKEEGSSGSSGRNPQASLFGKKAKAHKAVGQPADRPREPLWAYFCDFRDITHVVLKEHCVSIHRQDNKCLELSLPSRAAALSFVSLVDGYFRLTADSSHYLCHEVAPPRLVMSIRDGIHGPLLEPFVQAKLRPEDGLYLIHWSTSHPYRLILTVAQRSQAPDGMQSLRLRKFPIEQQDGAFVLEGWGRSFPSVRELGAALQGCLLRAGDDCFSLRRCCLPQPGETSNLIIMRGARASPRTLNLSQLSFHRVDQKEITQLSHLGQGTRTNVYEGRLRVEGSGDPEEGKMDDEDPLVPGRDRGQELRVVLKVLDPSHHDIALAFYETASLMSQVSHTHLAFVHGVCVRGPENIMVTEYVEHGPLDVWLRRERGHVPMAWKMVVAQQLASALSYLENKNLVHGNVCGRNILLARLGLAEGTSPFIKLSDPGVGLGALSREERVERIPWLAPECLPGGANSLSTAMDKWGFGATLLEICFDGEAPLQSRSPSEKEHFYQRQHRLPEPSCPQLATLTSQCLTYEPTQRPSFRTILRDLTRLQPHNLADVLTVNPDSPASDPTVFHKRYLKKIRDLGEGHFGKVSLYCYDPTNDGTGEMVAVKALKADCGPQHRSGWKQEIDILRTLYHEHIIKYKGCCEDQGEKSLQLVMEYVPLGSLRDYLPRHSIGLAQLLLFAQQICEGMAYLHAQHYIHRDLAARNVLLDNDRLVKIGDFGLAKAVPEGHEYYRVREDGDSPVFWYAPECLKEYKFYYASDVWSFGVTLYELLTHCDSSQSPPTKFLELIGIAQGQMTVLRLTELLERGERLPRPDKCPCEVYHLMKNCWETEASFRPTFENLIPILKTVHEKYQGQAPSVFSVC
- test_name: TYK2 MSD degradation in OCI-LY10 cells
- Type: cell-based
- experimental_context: OCI-LY10 cells, 4 to 24 hours incubation
endpoint_label: TYK2 MSD OCI-LY10 Dmax %

CNc1cc(N2CCc3c(CN4CCC(N5CCC6(CCN(C(=O)c7cc(C)c(Cl)c(N8CCC(=O)NC8=O)c7)CC6)CC5)C(F)(F)C4)cccc32)nc2c(C(=O)N[C@@H]3C[C@@H]3F)cnn12 (stereo partly shown) [I-775] = A (A (>90%))
CNc1cc(N2CCc3c(CN4CCC(N5CCC(N6CCN(C(=O)c7ccc(Cl)c(N8CCC(=O)NC8=O)c7)CC6)CC5)C(F)(F)C4)cccc32)nn2c(C(=O)N[C@@H]3C[C@@H]3F)cnc12 (stereo partly shown) [I-707] = D (D (<50%))
CNc1cc(N2CCc3c(-c4ccc(CN5CC6(CCN(Cc7ccc(OC)c(C8CCC(=O)NC8=O)c7)CC6(F)F)C5)cn4)cccc32)nn2c(C(=O)N[C@@H]3C[C@@H]3F)cnc12 (stereo partly shown) [I-431] = B (B (90 to >75%))
CNc1cc(N2CCc3c(C#CCN4CCC(N5CC6(CCN(C(=O)c7ccc(Cl)c(N8CCC(=O)NC8=O)c7)CC6)C5)C(F)(F)C4)cccc32)nn2c(C(=O)N[C@@H]3C[C@@H]3F)cnc12 (stereo partly shown) [I-701] = A (A (>90%))
CNc1cc(N2CCc3c(-c4ccc(CN5CCN(CCC6CCN(c7ccc(Cl)c(C8CCC(=O)NC8=O)c7)CC6)CC5)cn4)cccc32)nn2c(C(=O)NC3CC3F)cnc12 (mixture of isomers) [I-438] = C (C (75 to 50%))

What TYK2 MSD OCI-LY10 Dmax % value was documented for this molecule, CNc1cc(N2CCc3c(CC4CN(C5CCN(C6CCN(C(=O)c7ccc(Cl)c(N8CCC(=O)NC8=O)c7)CC6)CC5(F)F)C4)cccc32)nn2c(C(=O)N[C@@H]3C[C@@H]3F)cnc12 (stereo partly shown) [I-698] ?
B (B (90 to >75%))

For CNc1cc(N2CCc3c(-c4ccc(CN5CC6(CCC(COc7ccc(Cl)c(C8CCC(=O)NC8=O)c7)CC6)C5)cn4)cccc32)nn2c(C(=O)N[C@@H]3C[C@@H]3F)cnc12 (stereo partly shown) [I-462] then?
D (D (<50%))

Again, but for CNc1cc(-c2cn(C3CCN(CC4CCN(C(=O)c5ccc(Cl)c(N6CCC(=O)NC6=O)c5)CC4)CC3)c3ccccc23)nn2c(C(=O)N[C@@H]3C[C@@H]3F)cnc12 [I-789]
D (D (<50%))

Next entry: CNc1cc(N2CCc3c2ccc(C)c3CN2CCC(N3CCC4(CCN(C(=O)c5ccc(Cl)c(N6CCC(=O)NC6=O)c5)CC4)CC3)C(F)(F)C2)nn2c(C(=O)N[C@@H]3C[C@@H]3F)cnc12 (stereo partly shown) [I-755]
C (C (75 to 50%))

Proceed to CNc1cc(N2CCc3c(-c4ccc(CN5CCC(N6CCC(CC#Cc7ccc8c(c7)n(C)c(=O)n8C7CCC(=O)NC7=O)CC6)C(F)(F)C5)cn4)cccc32)nn2c(C(=O)N[C@@H]3C[C@@H]3F)cnc12 (stereo partly shown) [I-469]
B (B (90 to >75%))
